- EXPERIMENTAL_SYSTEM: T1, cynomolgus IL-18BP (cynomolgus monkey)
- T1 construct: also called cyno IL-18BP; cyIL-18BP
- T1 chain: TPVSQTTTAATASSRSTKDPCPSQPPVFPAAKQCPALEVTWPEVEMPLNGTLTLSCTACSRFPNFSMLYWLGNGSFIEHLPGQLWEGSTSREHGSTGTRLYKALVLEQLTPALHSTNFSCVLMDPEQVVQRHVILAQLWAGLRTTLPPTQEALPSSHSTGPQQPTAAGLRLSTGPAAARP
- EXPERIMENT: BLI, apparent KD
MEASURED_QUANTITY: Kd (nM)
Express the result in nM but write the number alone.

Below, each entry is followed by its recorded Kd result.
{"BINDER": "SA301a HC-Y50H (antibody, name in Kabat numbering, V domains shown, IgG1 kappa) VH: QVQLQESGPGLVKPSQTLSLTCTVSGYSITSDYNSHWIRQPPGKGLEWIGHIHYSGSTNYNPSLKSRVTISRDTSKNQFSLKLSSVTAADTAVYYCARNYGSIYVNYFDYWGQGTLVTVSS VL: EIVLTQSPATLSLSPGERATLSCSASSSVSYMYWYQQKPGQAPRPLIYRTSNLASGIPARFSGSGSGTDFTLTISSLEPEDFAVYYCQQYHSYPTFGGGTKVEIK", "MEASURED_QUANTITY": "Kd", "MEASURE_UNIT": "nM", "MEASURED_RESULT": 3.87}
{"BINDER": "SA301a HC-Y50G (antibody, name in Kabat numbering, V domains shown, IgG1 kappa) VH: QVQLQESGPGLVKPSQTLSLTCTVSGYSITSDYNSHWIRQPPGKGLEWIGGIHYSGSTNYNPSLKSRVTISRDTSKNQFSLKLSSVTAADTAVYYCARNYGSIYVNYFDYWGQGTLVTVSS VL: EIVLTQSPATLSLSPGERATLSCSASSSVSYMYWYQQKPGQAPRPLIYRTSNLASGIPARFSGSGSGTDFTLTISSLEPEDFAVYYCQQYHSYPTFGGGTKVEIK", "MEASURED_QUANTITY": "Kd", "MEASURE_UNIT": "nM", "MEASURED_RESULT": 2.85}

Kd reading for SA301a HC-Y50P (antibody, name in Kabat numbering, V domains shown, IgG1 kappa) VH: QVQLQESGPGLVKPSQTLSLTCTVSGYSITSDYNSHWIRQPPGKGLEWIGPIHYSGSTNYNPSLKSRVTISRDTSKNQFSLKLSSVTAADTAVYYCARNYGSIYVNYFDYWGQGTLVTVSS VL: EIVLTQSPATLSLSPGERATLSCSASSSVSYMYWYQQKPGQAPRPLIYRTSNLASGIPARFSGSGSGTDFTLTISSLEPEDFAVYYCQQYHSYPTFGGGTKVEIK : 4.49
